Sourced from patent US10172829B2

Record form. Attribute: pIC50. Fill in for each entry.
// scale note: pIC50 = -log10(conc_M); give the bare number

Query: Write down measured pIC50 (TcdB protease (Clostridioides difficile)) for this compound. O=C(Nc1ccc(F)cc1Cl)c1ccccc1[Se][Se]c1ccccc1C(=O)Nc1ccc(F)cc1Cl
Response: 5.13

Query: Write down measured pIC50 (TcdB protease (Clostridioides difficile)) for this compound. O=c1c2ccccc2[se]n1-c1ccc(Cl)cc1F
Response: 5.19

Query: Write down measured pIC50 (TcdB protease (Clostridioides difficile)) for this compound. COc1ccc(-n2[se]c3ccccc3c2=O)c(C)c1
Response: 5.19

Query: Write down measured pIC50 (TcdB protease (Clostridioides difficile)) for this compound. COc1ccc(C)cc1-n1[se]c2ccccc2c1=O
Response: 5.25

Query: Write down measured pIC50 (TcdB protease (Clostridioides difficile)) for this compound. O=c1c2ccccc2[se]n1-c1ncccc1O
Response: 5.13

Query: Write down measured pIC50 (TcdB protease (Clostridioides difficile)) for this compound. COc1ccc(Cl)cc1NC(=O)c1ccccc1[Se][Se]c1ccccc1C(=O)Nc1cc(Cl)ccc1OC
Response: 5.02

Query: Write down measured pIC50 (TcdB protease (Clostridioides difficile)) for this compound. COc1cccc(NC(=O)c2ccccc2[Se][Se]c2ccccc2C(=O)Nc2cccc(OC)c2)c1
Response: 5.40

Query: Write down measured pIC50 (TcdB protease (Clostridioides difficile)) for this compound. Cc1ccc(NC(=O)c2ccccc2[Se][Se]c2ccccc2C(=O)Nc2ccc(C)cc2Cl)c(Cl)c1
Response: 5.40

###

Molecular target: TcdB CPD (Clostridioides difficile)
Construct: The compounds were screened against the recombinantly expressed cysteine protease domain
Sequence (P18177 544-799 limits assumed): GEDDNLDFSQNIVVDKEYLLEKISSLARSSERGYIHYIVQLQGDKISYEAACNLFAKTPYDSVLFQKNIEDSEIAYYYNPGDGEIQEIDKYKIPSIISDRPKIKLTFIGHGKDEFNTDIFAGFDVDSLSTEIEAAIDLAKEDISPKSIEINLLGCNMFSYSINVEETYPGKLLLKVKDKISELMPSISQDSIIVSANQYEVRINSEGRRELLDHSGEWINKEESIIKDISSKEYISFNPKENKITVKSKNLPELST
Test: biochemical
Record form. Attribute: IC50. Fill in for each entry.
# number only, unit nM dropped from output

Query: State its IC50 for this compound: Cc1cc(C)c2c(=O)n(CC(=O)NCCc3ccc(Cl)cc3)sc2n1
Response: 3140

Query: State its IC50 for this compound: Cc1cc(C)c2c(=O)n(CC(=O)NCc3ccc4c(c3)OCO4)sc2n1
Response: 3900

Query: State its IC50 for this compound: Cc1cc(C)c2c(=O)n(CC(=O)NCCCSC3CCCCC3)sc2n1
Response: 1320

Query: State its IC50 for this compound: COCCNC(=O)Cn1sc2nc(C)cc(C)c2c1=O
Response: 2380

Query: State its IC50 for this compound: Cc1cc(C)c2c(=O)n(CC(=O)NC(C)CCc3ccccc3)sc2n1 (stereo not drawn)
Response: 3990

Query: State its IC50 for this compound: CCOCCCNC(=O)Cn1sc2nc(C)cc(C)c2c1=O
Response: 2810
